The measured values listed here are drawn from patent US20240066131A1.

System name: T1, human ferroportin (SLC40A1) fused in frame with GFP, stably expressed in HEK293 cells (human, UniProt Q9NP59 1-571)
T1 sequence (looked up): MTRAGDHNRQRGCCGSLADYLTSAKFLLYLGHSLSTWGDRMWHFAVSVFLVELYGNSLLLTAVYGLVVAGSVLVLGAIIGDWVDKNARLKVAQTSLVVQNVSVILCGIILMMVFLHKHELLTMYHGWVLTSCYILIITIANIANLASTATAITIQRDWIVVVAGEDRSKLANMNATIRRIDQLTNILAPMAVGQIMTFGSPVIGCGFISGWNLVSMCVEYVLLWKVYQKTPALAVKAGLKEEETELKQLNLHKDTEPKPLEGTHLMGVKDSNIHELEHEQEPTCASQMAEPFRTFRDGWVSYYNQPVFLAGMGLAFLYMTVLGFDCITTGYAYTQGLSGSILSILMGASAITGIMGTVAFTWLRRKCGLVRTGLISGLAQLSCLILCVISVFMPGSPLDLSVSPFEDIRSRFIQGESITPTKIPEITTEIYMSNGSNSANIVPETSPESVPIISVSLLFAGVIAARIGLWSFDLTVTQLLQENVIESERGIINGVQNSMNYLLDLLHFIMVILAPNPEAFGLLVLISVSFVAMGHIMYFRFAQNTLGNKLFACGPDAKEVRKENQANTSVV
Experiment description: cell-based or functional assay
Non-standard residues stand in square brackets, D forms with d. Groups on a side chain read outwards from the residue. *: point of attachment. C18 diacid = O=C(O)CCCCCCCCCCCCCCCCC(=O)*; Dip = N[C@H](C(=O)O)C(c1ccccc1)c1ccccc1; Myristoyl = CCCCCCCCCCCCCC(=O)*; β3hF = N[C@H](CC(=O)O)Cc1ccccc1; Isovaleryl = CC(C)CC(=O)*; AEEA = NCCOCCOCC(=O)O; Ahx = NCCCCCC(=O)O
Reported metric: FPN IC50 (nM)
All answers are understood in nM, so give the number only.

Sample Isovaleryl-K([AEEA-AEEA-Ahx-C18 diacid])TH[Dip]PAI[dK][β3hF]-NH2 (SMILES CC[C@H](C)[C@H](NC(=O)[C@H](C)NC(=O)[C@@H]1CCCN1C(=O)[C@@H](NC(=O)[C@H](Cc1c[nH]cn1)NC(=O)[C@@H](NC(=O)[C@H](CCCCNC(=O)COCCOCCNC(=O)COCCOCCNC(=O)CCCCCNC(=O)CCCCCCCCCCCCCCCCC(=O)O)NC(=O)CC(C)C)[C@@H](C)O)C(c1ccccc1)c1ccccc1)C(=O)N[C@H](CCCCN)C(=O)N[C@H](CC(N)=O)Cc1ccccc1) [Isovaleric Acid-[Lys(1PEG2_1PEG2_Ahx_C18_Diacid)]-T-H-[Dpa]-P-A-I-[(D)Lys]-[bhPhe]-NH2] — what was its FPN IC50?
1280

Query (binder): Isovaleryl-ETHFPAIK([Ahx-C12 acid])FEPRSKGAK-NH2 [Isovaleric Acid-E-T-H-F-P-A-I-[Lys(Ahx_C12_acid)]-F-E-P-R-S-K-G-A-K-NH2] ; field requested: FPN IC50
1070

May I ask what FPN IC50 has been recorded for Isovaleryl-ETHFPAIK([Ahx-Myristoyl])FEPRSKGAK-NH2 [Isovaleric Acid-E-T-H-F-P-A-I-[Lys(Ahx_C14_acid)]-F-E-P-R-S-K-G-A-K-NH2] ?
689
